- Tgt: furin, P09958
- Sequence (P09958 whole entry): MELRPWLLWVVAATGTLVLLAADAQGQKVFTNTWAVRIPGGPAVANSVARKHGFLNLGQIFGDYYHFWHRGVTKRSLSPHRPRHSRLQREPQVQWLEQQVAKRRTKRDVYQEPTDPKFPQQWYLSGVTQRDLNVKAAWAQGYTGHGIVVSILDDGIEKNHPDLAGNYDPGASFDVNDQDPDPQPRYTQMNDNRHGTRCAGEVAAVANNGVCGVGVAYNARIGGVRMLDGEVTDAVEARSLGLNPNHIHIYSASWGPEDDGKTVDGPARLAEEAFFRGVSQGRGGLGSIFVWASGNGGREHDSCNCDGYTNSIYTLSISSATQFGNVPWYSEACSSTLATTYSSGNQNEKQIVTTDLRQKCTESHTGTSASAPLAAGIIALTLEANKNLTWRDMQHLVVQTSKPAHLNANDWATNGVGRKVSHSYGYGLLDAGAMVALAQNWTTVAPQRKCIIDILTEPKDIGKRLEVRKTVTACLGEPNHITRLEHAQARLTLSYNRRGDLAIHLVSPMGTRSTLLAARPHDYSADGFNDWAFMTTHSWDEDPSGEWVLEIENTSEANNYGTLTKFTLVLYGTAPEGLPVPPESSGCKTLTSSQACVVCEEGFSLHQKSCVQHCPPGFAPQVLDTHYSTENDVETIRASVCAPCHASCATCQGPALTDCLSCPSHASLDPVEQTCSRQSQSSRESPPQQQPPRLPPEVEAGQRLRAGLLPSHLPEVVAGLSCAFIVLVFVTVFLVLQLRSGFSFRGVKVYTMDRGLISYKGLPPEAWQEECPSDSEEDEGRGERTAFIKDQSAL
- Assay summary: furin cleavage Z-score vs untreated control; higher = more cleavage, active = 3.5 or more, inactive = 1 or less, 8 variable residues between constant flanks;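 note: purified furin at 1:10 enzyme:substrate in 50 mM HEPES pH 7.5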
- Details: 7.5 min
The other results are listed elsewhere or left out. The true hit rate is not given.
Give one outcome, nothing more. List: YES = active, NO = inactive

| Sequence input | Answer label |
| --- | --- |
| CAFLADGGCSAGNASASA [HC810] | NO |
| CAGAGLAGAAAGNASASA [HC1076] | NO |
| CALIPRVRRAAGNASASA [FS-608] | YES |
| CAVVHRFARHAGNASASA [FS-107] | YES |
| CARTKRAQSPAGNASASA [FS-2824] | YES |

How was CAVGGVLAALAGNASASA [HC992] classified in this test?
NO

How was CAENLRKRRDAGNASASA [FS-585] classified in this test?
YES

How was CAVVHCSMSYAGNASASA [HC2035] classified in this test?
NO

How was CAVMHRVARHAGNASASA [FS-1431] classified in this test?
YES

How was CAENKVVILDAGNASASA [HC1284] classified in this test?
NO

How was CARTKRQIPHAGNASASA [FS-1870] classified in this test?
YES

How was CACVREGNASAGNASASA [HC275] classified in this test?
NO

How was CARPRRARRDAGNASASA [FS-289] classified in this test?
YES

How was CASFRRAFLIAGNASASA [FS-2322] classified in this test?
NO

How was CARKRRALLIAGNASASA [FS-3258] classified in this test?
YES

How was CAEVPCHWPSAGNASASA [HC2368] classified in this test?
NO

How was CAGWSRARRDAGNASASA [FS-334] classified in this test?
YES

Cited source: the supplement of paper PMC3545927
